tested-target: recombinant Human Phosphodiesterase B2 (PDE4B2) (Homo sapiens, UniProt Q07343)
Sequence (Q07343 1-564 isoform Q07343-2): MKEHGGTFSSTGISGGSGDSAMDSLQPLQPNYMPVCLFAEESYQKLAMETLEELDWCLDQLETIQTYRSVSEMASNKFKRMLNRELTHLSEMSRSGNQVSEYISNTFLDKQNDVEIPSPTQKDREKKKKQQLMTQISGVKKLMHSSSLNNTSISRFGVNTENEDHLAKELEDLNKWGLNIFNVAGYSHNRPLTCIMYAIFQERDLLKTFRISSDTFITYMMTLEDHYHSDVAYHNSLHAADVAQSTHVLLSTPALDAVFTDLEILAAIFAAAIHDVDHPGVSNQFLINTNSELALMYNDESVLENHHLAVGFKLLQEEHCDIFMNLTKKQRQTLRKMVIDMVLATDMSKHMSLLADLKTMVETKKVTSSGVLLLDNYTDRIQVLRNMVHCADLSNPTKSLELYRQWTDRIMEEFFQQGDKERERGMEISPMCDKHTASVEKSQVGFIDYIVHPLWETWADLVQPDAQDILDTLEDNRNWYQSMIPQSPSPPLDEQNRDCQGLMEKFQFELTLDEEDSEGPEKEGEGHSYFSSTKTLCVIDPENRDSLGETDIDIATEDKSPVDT
procedure-details: Human Phosphodiesterase B2 Radiometric Assay
Type: biochemical
assay-conditions: 0.1 μg/mL recombinant PDE4B2; preincubated at 30 C for 30 min; [3H]cyclic AMP 8 nM, stopped after 20 min; yttrium silicate SPA beads; read-out: PDE4B2 pIC50 (converted)
Just a reminder that ties go to false: only IC50 strictly below 0.04 nM counts as true.

compound: C[C@@H]1CN(CCCc2ccc(-c3cccc(Oc4ncc(F)cc4C(=O)N[C@H]4CC[C@@H](NC(=O)c5cn6c(n5)CCCC6)CC4)c3)cc2)C[C@H](C)N1 [Example 104]
group: true

compound: C[C@@H]1CN(CCCc2ccc(-c3cccc(Oc4ncc(F)cc4C(=O)N[C@H]4CC[C@@H](NC(=O)c5ccn(C)n5)CC4)c3)cc2)C[C@H](C)N1 [Example 165]
group: false

compound: Cc1cccc(C(=O)N[C@H]2CC[C@@H](NC(=O)c3cc(F)cnc3Oc3cccc(-c4ccc(CCCNCCCO)cc4)c3)CC2)n1 [Example 158]
group: true

compound: CC(C)NC(=O)CN1CCN(Cc2ccc(-c3cccc(Oc4ncc(F)cc4C(=O)N[C@H]4CC[C@@H](NC(=O)c5cc6n(n5)CCCC6)CC4)c3)c(CN3CCOCC3)c2)CC1 [Example 200]
group: true

compound: O=C(N[C@H]1CC[C@@H](NC(=O)c2cc(F)cnc2Oc2cccc(-c3ccc(CN4CCNCC4)cc3)c2)CC1)c1cn2c(n1)CCCC2 [Example 1]
group: false

compound: O=C(N[C@H]1CC[C@@H](NC(=O)c2cc(F)cnc2Oc2cccc(-c3ccc(CCCN4CCNCC4)cc3)c2)CC1)c1cn2c(n1)CCCC2 [Example 137]
group: false

compound: Cc1cc(C)n2ncc(C(=O)N[C@H]3CC[C@@H](NC(=O)c4cc(F)cnc4Oc4cccc(-c5ccc(CN6C[C@@H](C)N[C@@H](C)C6)cc5CN5CCOC[C@@H]5C)c4)CC3)c2n1 [Example 196]
group: true

compound: Cc1nc(C(=O)N[C@H]2CC[C@@H](NC(=O)c3cc(F)cnc3Oc3cccc(-c4ccc(CN5CCCOCC5)cc4)c3)CC2)cs1 [Example 55]
group: false

compound: Cc1nc(C(=O)N[C@H]2CC[C@@H](NC(=O)c3cc(F)cnc3Oc3cccc(-c4ccc(O)cc4CN4CCN(C(C)C)CC4)c3)CC2)cs1 [Example 25]
group: false

compound: Cc1nc(C(=O)N[C@H]2CC[C@@H](NC(=O)c3cc(F)cnc3Oc3cccc(-c4cccc(CN5C[C@@H](C)N[C@@H](C)C5)c4O)c3)CC2)cs1 [Example 69]
group: false

compound: Cc1cc(C(=O)N[C@H]2CC[C@@H](NC(=O)c3cc(F)cnc3Oc3cccc(-c4cccc(CCCN5CCNCC5)c4)c3)CC2)nn1C [Example 108]
group: true

compound: Cc1cccc2nc(C(=O)N[C@H]3CC[C@@H](NC(=O)c4cc(F)cnc4Oc4cccc(-c5ccc(CCCNC(C)C)cc5)c4)CC3)cn12 [Example 116]
group: true

compound: O=C(N[C@H]1CC[C@@H](NC(=O)c2cc(F)cnc2Oc2cccc(-c3ccc(CCCNCCCO)cc3)c2)CC1)c1cc2ccccn2n1 [Example 159]
group: false

compound: CN(C)CCN(C)Cc1ccc(-c2cccc(Oc3ncc(F)cc3C(=O)N[C@H]3CC[C@@H](NC(=O)c4cn5c(n4)CCCC5)CC3)c2)cc1 [Example 105]
group: false

compound: Cc1cc(C(=O)N[C@H]2CC[C@@H](NC(=O)c3cc(F)cnc3Oc3cccc(-c4ccc(CCN5CCN(C)CC5)cc4)c3)CC2)nn1C [Example 167]
group: false

compound: Cc1ccc(O)c(C(=O)N[C@H]2CC[C@@H](NC(=O)c3cc(F)cnc3Oc3cccc(-c4ccc(O)cc4CN4CCOCC4)c3)CC2)c1 [Example 28]
group: true

compound: C[C@@H]1CN(Cc2cc(-c3cccc(Oc4ncc(F)cc4C(=O)N[C@H]4CC[C@@H](NC(=O)c5cn6cc(F)ccc6n5)CC4)c3)ccc2O)C[C@H](C)N1 [Example 84]
group: false

compound: CN(C)Cc1cc(O)ccc1-c1cccc(Oc2ncc(F)cc2C(=O)N[C@H]2CC[C@@H](NC(=O)c3cccc4[nH]cnc34)CC2)c1 [Example 52]
group: false

Where these numbers come from: patent US8273774B2
